System under test: various mutants of kinase EGFR (BaF3 cell lines stably transfected with kinase) (Homo sapiens, UniProt P00533, L858R/T790M)
Construct: expressed in transfected cells; host or cells: BaF3
Sequence (P00533 25-1210 T790M/L858R): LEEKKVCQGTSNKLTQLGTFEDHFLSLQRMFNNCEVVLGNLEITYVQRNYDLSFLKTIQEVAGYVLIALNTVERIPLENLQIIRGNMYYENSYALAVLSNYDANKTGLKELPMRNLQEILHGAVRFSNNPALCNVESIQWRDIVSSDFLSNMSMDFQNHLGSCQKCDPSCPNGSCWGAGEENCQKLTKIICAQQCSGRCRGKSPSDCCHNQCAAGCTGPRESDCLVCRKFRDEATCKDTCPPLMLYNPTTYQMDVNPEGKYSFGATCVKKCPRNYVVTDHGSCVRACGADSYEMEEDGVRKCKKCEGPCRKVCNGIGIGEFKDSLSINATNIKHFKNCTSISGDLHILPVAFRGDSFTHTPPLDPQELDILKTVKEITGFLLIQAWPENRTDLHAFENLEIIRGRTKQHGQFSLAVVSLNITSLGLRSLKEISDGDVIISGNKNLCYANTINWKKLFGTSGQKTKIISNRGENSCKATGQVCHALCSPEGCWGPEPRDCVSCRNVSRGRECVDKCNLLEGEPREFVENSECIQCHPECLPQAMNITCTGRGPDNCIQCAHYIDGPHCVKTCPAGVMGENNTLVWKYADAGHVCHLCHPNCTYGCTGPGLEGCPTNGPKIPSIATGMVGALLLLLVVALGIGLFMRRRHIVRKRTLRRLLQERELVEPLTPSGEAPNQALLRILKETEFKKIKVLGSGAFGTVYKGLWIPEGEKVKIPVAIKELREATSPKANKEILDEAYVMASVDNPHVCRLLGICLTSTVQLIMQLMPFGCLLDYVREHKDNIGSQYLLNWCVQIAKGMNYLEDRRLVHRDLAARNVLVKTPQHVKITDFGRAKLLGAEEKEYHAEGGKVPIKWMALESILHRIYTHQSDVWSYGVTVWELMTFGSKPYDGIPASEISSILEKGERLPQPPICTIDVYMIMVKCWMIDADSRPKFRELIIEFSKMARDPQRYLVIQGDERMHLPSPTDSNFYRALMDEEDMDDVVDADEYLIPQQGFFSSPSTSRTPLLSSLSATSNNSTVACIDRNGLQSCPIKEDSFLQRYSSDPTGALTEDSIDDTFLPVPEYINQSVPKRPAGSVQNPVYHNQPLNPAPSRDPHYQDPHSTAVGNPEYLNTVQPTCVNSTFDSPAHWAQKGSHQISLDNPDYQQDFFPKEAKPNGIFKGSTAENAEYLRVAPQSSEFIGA
Assay info: Growth inhibitory activity of compounds on BaF3 cell lines stably transfected with kinase (MTS, 48 h)
Format: cell-based
Test settings: BaF3 cell line stably transfected with EGFR L858R/T790M, read-out: L858R/ T790M growth inhibitory activity IC50
pIC50: −log10 of the molar value.
Result type: pIC50

Below: 3 compounds and their reported pIC50.
>>> reported("CCc1cc(Nc2ncc(Br)c(Nc3ccc4nccnc4c3N(C)S(C)(=O)=O)n2)c(OC)cc1N1CCC2(CC1)CC(N(C)C)C2")
"6.30 to 7.30"
>>> reported("COc1ccc(N2CCC(O)CC2)cc1Nc1ncc(C)c(Nc2ccc3nccnc3c2N(C)S(C)(=O)=O)n1")
"6.30 to 7.30"
>>> reported("COc1cc(N2CCC(N3CCN(C)CC3)CC2)c(C(C)C)cc1Nc1nccc(Nc2ccc3nccnc3c2N(C)S(C)(=O)=O)n1")
"6.30 to 7.30"

Item under review: `CCc1cnc(Nc2cc(C)c(N3CCC(N4CCN(C)CC4)CC3)cc2OC)nc1Nc1ccc2nccnc2c1N(C)S(C)(=O)=O` . Reported pIC50?
≥ 7.30

// query pIC50 value for entry `COc1cc(N2CCC(N3CCN(C)CC3)CC2)c(Cc2ccccc2)cc1Nc1nc(Nc2ccc3nccnc3c2N(C)S(C)(=O)=O)c2sccc2n1`
5.60 to 6.30

Bench note: what pIC50 did `CCN(c1c(Nc2nc(Nc3cc(N4CCC(O)CC4)ccc3OC)ncc2Br)ccc2nccnc12)S(C)(=O)=O` show?
≥ 7.30

Bench note: what pIC50 did `COc1ccc(N2CCC(O)CC2)cc1Nc1ncc(OC)c(Nc2ccc3nccnc3c2N(C)S(C)(=O)=O)n1` show?
≥ 7.30

Look at this compound and give its reported pIC50. `COc1cc(N2CCC(N3CCN(C)CC3)CC2)c(C)cc1Nc1nc(Nc2ccc3nccnc3c2N(C)S(C)(=O)=O)c2[nH]ccc2n1`
6.30 to 7.30

What value of measured pIC50 is listed for CCc1cc(Nc2nc(Nc3ccc4nccnc4c3N(C)S(C)(=O)=O)c3[nH]ccc3n2)c(OC)cc1N1CCC(N(C)C)C1 (stereo not shown) ?
5.60 to 6.30

What value of pIC50 has been recorded for this entry: `CN1CCN(C2CCN(c3c(F)cc(Nc4ncc(Cl)c(Nc5ccc6nccnc6c5N(C)S(C)(=O)=O)n4)cc3F)CC2)CC1`
≥ 7.30

Given `CCc1cc(Nc2nccc(Nc3ccc4nccnc4c3N(C)S(C)(=O)=O)n2)c(OC)cc1N1CCC(N2CCN(C)CC2)CC1` , state its recorded pIC50.
≥ 7.30

So what's the measured pIC50 for this one? `COc1ccc(N2CCC(O)CC2)cc1Nc1ncc(Br)c(Nc2ccc3nccnc3c2N(C)S(=O)(=O)C2CC2)n1`
≥ 7.30

// returns reported pIC50 for input `COc1ccc(N2CCC(N3CCCC3)CC2)cc1Nc1ncc(Br)c(Nc2ccc3nccnc3c2N(C)S(C)(=O)=O)n1`
≥ 7.30
